Reported values of IC50 for individual entries
test system: BALB/3T3; test: Cytotoxicity against mouse BALB/3T3 cells assessed as reduction in cell viability incubated for 72 hrs by SRB assay; assay type: ADME, cell-based; details: BALB/3T3, 72 h

molecule: COc1cc2c(c(OC)c1OC)-c1ccc(SC)c(=O)cc1[C@@H](NCc1ccc(C)cc1)CC2
measurement.units: nM
IC50: 85.4

molecule: COc1cc2c(c(OC)c1OC)-c1ccc(SC)c(=O)cc1[C@@H](NCc1ccc(I)cc1)CC2
measurement.units: nM
IC50: 119

molecule: COc1cc2c(c(OC)c1OC)-c1ccc(SC)c(=O)cc1[C@@H](NCc1ccncc1)CC2
measurement.units: nM
IC50: 10.9

molecule: COc1cccc2c1C(=O)c1c(O)c3c(c(O)c1C2=O)C[C@@](O)(C(=O)CO)C[C@@H]3O[C@H]1C[C@H](N)[C@H](O)[C@H](C)O1 [DOXORUBICIN]
measurement.units: nM
IC50: 315

molecule: CCN[C@H]1CCc2cc(OC)c(OC)c(OC)c2-c2ccc(SC)c(=O)cc21
measurement.units: nM
IC50: 10.2

molecule: COc1ccc(CN[C@H]2CCc3cc(OC)c(OC)c(OC)c3-c3ccc(SC)c(=O)cc32)cc1O
measurement.units: nM
IC50: 10.8

molecule: COc1cc2c(c(OC)c1OC)-c1ccc(SC)c(=O)cc1[C@@H](NCc1ccccc1O)CC2
measurement.units: nM
IC50: 8.8

molecule: COc1cc2c(c(OC)c1OC)-c1ccc(SC)c(=O)cc1[C@@H](NCc1ccc(Cl)cc1)CC2
measurement.units: nM
IC50: 88.2

Source of measurements: ChEMBL document CHEMBL5030546
